System: dogs
Experiment: anti-emetic activity, apomorphine vomiting test on dogs
Assay type: in vivo
Details: Canis lupus familiaris, po, dogs, orally, apomorphine; read-out: Anti-emetic activity on dogs ED 50
Counter-ions that a name gives are not always drawn.
READOUT: log10 of ED50 (log10 of the value in mg/kg)
Scale: log10; quantity: ED50; unit before log: mg/kg

Example compounds with recorded log10 of ED50:
| COMPOUND | NUMERIC_RESULT |
| --- | --- |
| CNc1nc(Cl)c(SC)c(N2CCN(CCO)CC2)n1 [Example 8] | -0.60 |
| CCCCCNc1nc(Cl)c(SC)c(N2CCN(C)CC2)n1 [Example 24] | 0.28 |
| CSc1c(Cl)nc(NC(C)C)nc1N1CCN(C)CC1 [Example 2] | -0.92 |

Below are some compounds; for each one, tell me its log10 of ED50.
1. CSc1c(Cl)nc(N(C)C(=O)c2ccccc2)nc1N1CCN(C)CC1 [Example 13, hydrochloride]
2. C=CCNc1nc(Cl)c(SC)c(N2CCN(C)CC2)n1 [Example 21]
3. CC(=O)Nc1nc(Cl)c(C)c(N2CCN(C)CC2)n1 [Example 14]
4. CCCOc1nc(NC)nc(N2CCN(C)CC2)c1SC [Example 18, hydrochloride]
5. CCCCN1CCN(c2nc(N(C)Cc3ccccc3)nc(Cl)c2SC)CC1 [Example 27, hydrochloride]
6. CSc1c(Cl)nc(NCCO)nc1N1CCN(C)CC1 [Example 22]
7. CCCCCCNc1nc(Cl)c(SC)c(N2CCN(C)CC2)n1 [Example 25]
8. CCCNc1nc(Cl)c(SC)c(N2CCN(C)CC2)n1 [Example 30]

1: 0.28; 2: -0.10; 3: 0.57; 4: 0.59; 5: 0.18; 6: -0.07; 7: 0.70; 8: -0.80

Tell me log10 of ED50 reported for C=CCOc1nc(NC)nc(N2CCN(C)CC2)c1SC [Example 19, hydrochloride]
0.18

Just for reference, patent US4166852A is where these values come from.
